Experiment: Mean residence time in Sprague-Dawley rat at 1 mg/kg, iv and 3 mg/kg, po administered as cassette dosing
Type: ADME, organism-based
Conditions: in vivo
measured quantity: MRT (h)

* NC(=O)c1nnc(N[C@@H]2CCCC[C@@H]2N)nc1Nc1cccc2cc[nH]c12 | 8.7
* NC(=O)c1nnc(N[C@@H]2CCCC[C@@H]2N)nc1Nc1cccc2[nH]ccc12 | 2.1
* NC(=O)c1ncc(N[C@@H]2CCCC[C@@H]2N)nc1Nc1cccc2cc[nH]c12 | 7.2

* * *

Molecular target: Tyrosine-protein kinase SYK (Homo sapiens, UniProt P43405)
Assay: Inhibition of Syk in anti-CD32 stimulated CD14+ human monocytes assessed as phospho-SLP76 level preincubated for 30 mins followed by anti-CD32 stimulation measured after 5 mins by flow cytometric analysis
measured quantity: log10(IC50) (log10 of the value in nM)

- NC(=O)c1ncc(N[C@@H]2CCCC[C@@H]2N)nc1Nc1cccc2cc[nH]c12: 2.48
- NC(=O)c1ncc(N[C@@H]2CCCC[C@@H]2N)nc1Nc1cccc(-n2nccn2)c1: 3.25
- NC(=O)c1cnc(N[C@@H]2CCCC[C@@H]2N)nc1Nc1cccc2cc[nH]c12: 2.89
- NC(=O)c1nnc(N[C@@H]2CCCC[C@@H]2N)nc1Nc1cccc2cc[nH]c12: 2.56
- NC(=O)c1nnc(N[C@@H]2CCCC[C@@H]2N)nc1Nc1cccc2[nH]ccc12: 2.25

Recorded values, source ChEMBL document CHEMBL3414433.
